Test system: NCI/ADR-RES ovarian
Assay: NCI tumour cell line growth inhibition, 48 h
This listing pairs molecules with measured TGI.

[
  {
    "molecule": "Nc1ccc(-c2nc3ccc(F)cc3s2)cc1I",
    "system": "NCI/ADR-RES ovarian",
    "TGI": "> 100 µM"
  },
  {
    "molecule": "CC(C)=CCC/C(C)=C/CCC1(C)C=Cc2c(c3ccccc3oc2=O)O1 (stereo not drawn)",
    "system": "NCI/ADR-RES ovarian",
    "TGI": "31.1 µM"
  },
  {
    "molecule": "O=[N+]([O-])/C=C/c1cn(CCCCCCCCCCCCn2cc(/C=C/[N+](=O)[O-])c3ccccc32)c2ccccc12",
    "system": "NCI/ADR-RES ovarian",
    "TGI": "> 100 µM"
  },
  {
    "molecule": "C=C[C@]1(O[Si](C)(C)C)C[C@@]2(C(=O)OCC)C(O)C(=O)N3CCc4cc(OC)c(OC)cc4[C@]312 (stereo partly drawn)",
    "system": "NCI/ADR-RES ovarian",
    "TGI": "> 100 µM"
  },
  {
    "molecule": "c1ccc2c(CNCCN3CCNCC3)c3ccccc3c(CNCCN3CCNCC3)c2c1",
    "system": "NCI/ADR-RES ovarian",
    "TGI": "> 100 µM"
  },
  {
    "molecule": "O=C1c2ccccc2C(=O)c2c1cc1c(c2[N+](=O)[O-])OCO1",
    "system": "NCI/ADR-RES ovarian",
    "TGI": "8.87 µM"
  },
  {
    "molecule": "C=CCNC(=O)CN(CC(=O)OC)C1CCCCC1N(CC(=O)OC)CC(=O)OC (stereo not drawn)",
    "system": "NCI/ADR-RES ovarian",
    "TGI": "> 100 µM"
  },
  {
    "molecule": "c1ccc2c(-c3csc(-c4c[nH]c5ccccc45)n3)c[nH]c2c1",
    "system": "NCI/ADR-RES ovarian",
    "TGI": "> 100 µM"
  },
  {
    "molecule": "O=C1/C(=C/c2cccs2)NC(=S)N1CN1CCCCC1",
    "system": "NCI/ADR-RES ovarian",
    "TGI": "> 100 µM"
  },
  {
    "molecule": "COC1=C(OC)[C@]2(OC)c3c(O)c(OC)c4c(c3O[C@@]23O[C@@H](c2ccccc2)CC=C3C1=O)[C@@H](OC)C[C@H](c1ccccc1)O4",
    "system": "NCI/ADR-RES ovarian",
    "TGI": "3.74 µM"
  },
  {
    "molecule": "O=C(c1ccco1)c1c(C(F)(F)F)n([O-])c2cc(F)c(F)cc2[n+]1=O",
    "system": "NCI/ADR-RES ovarian",
    "TGI": "0.179 µM"
  },
  {
    "molecule": "[Cl][Cu][Cl]",
    "system": "NCI/ADR-RES ovarian",
    "TGI": "> 10 µM"
  },
  {
    "molecule": "C=CCN(CC=C)C(=O)[C@H](CC)[C@@H]1CC[C@@H](C)[C@@H]([C@H](C)[C@@H](O)[C@@H](C)C(=O)[C@H](CC)C2O[C@]3(C=C[C@@H](O)[C@]4(CC[C@@](C)([C@H]5CC[C@](O)(CC)[C@H](C)O5)O4)O3)[C@H](C)C[C@@H]2C)O1 (stereo partly drawn)",
    "system": "NCI/ADR-RES ovarian",
    "TGI": "9.82 µM"
  },
  {
    "molecule": "COC1=C(OC)C(=O)C(CCCCCCCCCCO)=C(C)C1=O",
    "system": "NCI/ADR-RES ovarian",
    "TGI": "13 µM"
  },
  {
    "molecule": "N#CCNC(=O)c1ccc(-c2ccnc(Nc3ccc(N4CCOCC4)cc3)n2)cc1",
    "system": "NCI/ADR-RES ovarian",
    "TGI": "> 100 µM"
  },
  {
    "molecule": "N#C/C(=C\\c1cc2ccc(N3CCC3)cc2oc1=O)C(=O)N(CC(=O)O)CC(=O)O",
    "system": "NCI/ADR-RES ovarian",
    "TGI": "> 100 µM"
  },
  {
    "molecule": "Clc1ccc([I+]c2ccc(Cl)cc2Cl)c(Cl)c1",
    "system": "NCI/ADR-RES ovarian",
    "TGI": "32 µM"
  },
  {
    "molecule": "O=C(Nc1ccc2[nH]c(C(=O)N3CC(CCl)c4ccc([N+](=O)[O-])cc43)cc2c1)c1cc2ccccc2o1 (stereo not drawn)",
    "system": "NCI/ADR-RES ovarian",
    "TGI": "> 1100 µM"
  },
  {
    "molecule": "CC1=NNC(=S)NCCCN2CCN(CCCNC(=S)NN=C(C)C=NNC(=S)NCCCN3CCN(CCCNC(=S)NN=C1)CC3)CC2",
    "system": "NCI/ADR-RES ovarian",
    "TGI": "> 100 µM"
  },
  {
    "molecule": "Nc1nc(-c2ccc(Cl)cc2)nc2c1sc(=S)n2-c1ccccc1",
    "system": "NCI/ADR-RES ovarian",
    "TGI": "19.8 µM"
  },
  {
    "molecule": "C/C(N)=N/OCc1nc(C)no1",
    "system": "NCI/ADR-RES ovarian",
    "TGI": "> 100 µM"
  },
  {
    "molecule": "CCN1C[C@]2(C)CC[C@H](OC)C34C5C[C@@H]6[C@@H](OC)C[C@@](OC)(C5[C@H]6OCc5ccccc5)C(C13)[C@H](OC(C)=O)[C@@H]42 (stereo partly drawn)",
    "system": "NCI/ADR-RES ovarian",
    "TGI": "> 100 µM"
  },
  {
    "molecule": "CC(=O)NCCCCN(CCCNC(C)=O)C(=O)OCc1ccccc1",
    "system": "NCI/ADR-RES ovarian",
    "TGI": "> 100 µM"
  },
  {
    "molecule": "OC1COC(OCc2ccccc2)C(O)C1O (stereo not drawn)",
    "system": "NCI/ADR-RES ovarian",
    "TGI": "> 100 µM"
  },
  {
    "molecule": "O=C(c1cc(Cc2n[nH]c(=O)c3ccccc23)ccc1F)N1CCN(C(=O)C2CC2)CC1",
    "system": "NCI/ADR-RES ovarian",
    "TGI": "> 100 µM"
  },
  {
    "molecule": "Nc1nc(C(=O)O)c(N=Nc2ccccc2)c(=O)[nH]1",
    "system": "NCI/ADR-RES ovarian",
    "TGI": "> 100 µM"
  },
  {
    "molecule": "c1cncc(CSc2ncnc3nc[nH]c23)c1",
    "system": "NCI/ADR-RES ovarian",
    "TGI": "> 100 µM"
  },
  {
    "molecule": "Clc1nc(Cl)c2ncn(CCOCCn3cnc4c(Cl)nc(Cl)nc43)c2n1",
    "system": "NCI/ADR-RES ovarian",
    "TGI": "0.424 µM"
  },
  {
    "molecule": "CCC(C)N1CN(c2ccccc2)C2(CCN(CCCSc3ccc(F)cc3)CC2)C1=O (stereo not drawn)",
    "system": "NCI/ADR-RES ovarian",
    "TGI": "11 µM"
  },
  {
    "molecule": "Nc1nc2ccccc2c2c1S(=O)(=O)c1ccc(Cl)cc1C2=O",
    "system": "NCI/ADR-RES ovarian",
    "TGI": "6.27 µM"
  },
  {
    "molecule": "COC(=O)c1cc([N+](=O)[O-])cc([N+](=O)[O-])c1Cl",
    "system": "NCI/ADR-RES ovarian",
    "TGI": "8.71 µM"
  },
  {
    "molecule": "COc1cc2c(cc1NC(=O)C(Cl)Cl)-c1ccc(NC(=O)C(Cl)Cl)cc1C2",
    "system": "NCI/ADR-RES ovarian",
    "TGI": "4.42 µM"
  },
  {
    "molecule": "Cc1cc(O)c2c3c(ccc2c1)C(=O)c1c(O)cccc1C3=O",
    "system": "NCI/ADR-RES ovarian",
    "TGI": "> 100 µM"
  },
  {
    "molecule": "COc1ccc(COc2cc3oc(=O)c4cc(C(C)O)ccc4c3cc2OC)cc1 (stereo not drawn)",
    "system": "NCI/ADR-RES ovarian",
    "TGI": "44.4 µM"
  },
  {
    "molecule": "O=C1C(Sc2ccc3ccccc3c2)=C(Sc2ccc3ccccc3c2)C(=O)c2ccccc21",
    "system": "NCI/ADR-RES ovarian",
    "TGI": "44.9 µM"
  },
  {
    "molecule": "CCn1ccnc1C(=O)/C=C/c1ccc(CC(=O)Nc2ccc(F)cc2)cc1",
    "system": "NCI/ADR-RES ovarian",
    "TGI": "> 16.7 µM"
  },
  {
    "molecule": "COc1cc(/C=C/C(=O)O[C@H]2[C@H](O[C@@H]3O[C@@H](C)[C@H](O)[C@@H](O)[C@H]3O)[C@@H](O)[C@H](OCCc3ccc(O)c(O)c3)O[C@@H]2COC2OCC(O)(CO)C2O)ccc1O (stereo partly drawn)",
    "system": "NCI/ADR-RES ovarian",
    "TGI": "> 100 µM"
  },
  {
    "molecule": "O=S(=O)(NCCCNc1nccc(-c2c(-c3ccc(F)cc3)nc3sccn23)n1)c1ccc(F)cc1",
    "system": "NCI/ADR-RES ovarian",
    "TGI": "> 100 µM"
  }
]
